assay details: S. cerevisiae growth inhibition in restrictive medium, OD615, pilot screen, restrictive growth control, yeast lifespan reduction project (AID 706);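 further: modified DeaD lifespan yeast strain shifted to restrictive glucose medium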
experimental parameters: OD615, 48 h, at 10 µM
Activity calls are given as the source filed them.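 How the source made its calls: active means growth inhibition above a set limit, 3 SD over mean compound inhibition, in both replicates (cut at about 43% in these data); inconclusive means above the limit in only one replicate; inactive means at or below the limit in both replicates.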
Output constraint: value belongs to 1.0 (active), 0.0 (inactive)

Look over these answered cases.
compound | category label
COc1cc(/C=N/n2cnnc2)ccc1OCC(=O)N1CCOCC1 | 0.0
Cc1cc(C)nc(/N=C2\NC(=O)CC(C(=O)O)N2c2ccc(Cl)cc2)n1 (stereo unspecified) | 0.0

Query block: Test call for this compound, please: O=C(c1ccc2nc(N3CCOCC3)sc2c1)N1CCCC1
Result block: 0.0

* * *

assay details: MRP1 drug-resistance reversers in H69AR cells – cell-based, doxorubicin co-treatment, pilot screen (AID 601)
experimental parameters: H69AR cells + 2 uM doxorubicin, CellTiter-Glo, 72 h; at 10 µM; stronger effect = higher value
Here the recorded differential viability (reversal) is given for each entry.
Only the number, expressed in %, is required.

compound | differential viability (reversal) (%)
O=C(c1ccc(CSCc2ccccc2F)o1)N1CCN(c2ccc(N3CCOCC3)nn2)CC1 | -5.4
COc1ccc(C(NC(=O)c2ccco2)c2ccc(OC)c(OC)c2)cc1 (stereo unspecified) | 15.1
Nc1cc(N)cc(-c2nc3ccccc3o2)c1 | 19.1
CCCCC(NS(=O)(=O)c1ccc(OC)cc1)C(=O)O (stereo unspecified) | 4.5
Cc1cccc(CN2CCC(CNC(=O)C3CCCN(S(=O)(=O)c4cnc[nH]4)C3)CC2)c1 (stereo unspecified) | 2.14
COc1ccccc1-c1nnc(SCC(=O)NC2CCCCC2)o1 | -0.34
Cc1cc2ncn(C(=O)N3CCOCC3)c2cc1C | 7.56
COc1ccc(NC(=O)C2CCCCN2S(=O)(=O)c2ccc(F)cc2)cc1 (stereo unspecified) | -12.1
COc1ccc(C(=O)NCc2nnc(SC)n2C2CCCCC2)cc1 | 9.5
CCOc1ccc(N(CC(=O)Nc2ccc(C)c(C)c2)S(=O)(=O)c2c(C)noc2C)cc1 | -14.4

Read the next record carefully.
Query block: Can you look up the measured differential viability (reversal) of Cc1ccc(C)c(N2CCN(CCCNC(=O)Cn3cc4c(n3)CCCCC4)CC2)c1 for me?
Result block: -31.3

* * *

Examples of compounds with documented viability follow.
assay details: MRP1 drug-resistance reversers in H69AR cells – cell-based, doxorubicin co-treatment, pilot screen (AID 601)
experimental parameters: H69AR cells, CellTiter-Glo, 72 h; compound alone cytotoxicity; at 10 µM
# include the unit after the value

compound | measurement label | readout value
O=C(c1cc(C2CC2)on1)N1CCN(C(c2ccccc2)c2ccccc2)CC1 | viability | 87.7%
Cc1nc2sc(C(c3cccs3)N3CC(C)CC(C)C3)c(O)n2n1 (configuration not stated) | viability | 95.2%
Cc1ccccc1-n1c(Cn2c(=O)sc3ccccc32)nnc1SCC(=O)N1CCCC1 | viability | 93.7%
Cc1nnc(SCCn2c(N3CCC(Cc4ccccc4)CC3)nc3c2c(=O)[nH]c(=O)n3C)s1 | viability | 79.4%
CCC(Oc1ccccc1)C(=O)Nc1ccccc1OC (configuration not stated) | viability | 97.4%

Query block: Name the recorded viability for COC(=O)c1cccc(NC(=O)C2COc3ccccc3O2)c1C (configuration not stated) .
Result block: 100%

Query block: Could you tell me which viability is on file for O=C(C1CCCN1S(=O)(=O)c1cccc2cccnc12)N1CCn2c1nc1ccccc12 (configuration not stated) ?
Result block: 94.1%

Query block: I have this compound here, COc1ccc(OCCSc2nc3ccccc3n2CC(=O)O)cc1 , and I need its recorded viability.
Result block: 97.8%

Query block: Form field: reported viability of CCOc1ccc(Cn2nnc(C(=O)NCc3ccc(OC)cc3)c2N)cc1
Result block: 89.5%

Query block: Entry COC(=O)C1=C(C)NC2=C(C(=O)CCC2)C1c1coc2ccccc2c1=O (configuration not stated) has what viability?
Result block: 93%

Query block: # get_value(readout='viability', item= CCOC(=O)CCCOC(=O)c1ccc(S(=O)(=O)N(C)C)cc1 )
Result block: 100%

Query block: For the compound shown here, CCOCCCNC(=O)C(c1ccc(C)cc1)N(Cc1ccc2c(c1)OCO2)C(=O)c1cnccn1 (configuration not stated) , give the reported viability.
Result block: 98.7%

Query block: Consider the compound shown here: COc1ccc(CCNc2oc(COc3ccccc3Cl)nc2C#N)cc1OC What is its recorded viability?
Result block: 92.2%

Query block: // returns reported viability for input CCN(CC)CCn1c(=N)n(CCO)c2ccccc21
Result block: 101%

* * *

assay details: RAM signaling pathway blockade in yeast – S. cerevisiae, Pdr1DBD-CYC8 efflux-inhibited sensitized strain, primary screen (AID 1298);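 further: 0% = DMSO untreated cells without growth and 100% = 10 µM 1-NA-PP1 full growth; higher means more yeast growth rescued from 5-FOA killing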
experimental parameters: S. cerevisiae cbk1-as DSE1-URA3 strain, 5-FOA growth OD615, 2 d; at 50 µM; stronger effect = higher value
measurement label: RAM network inhibition (%)
Numbers only here, please. The scale is %.

Previously resolved entries follow.
molecule | reading unit | readout value
CCOC(=O)c1[nH]c(C)c(C(=O)Nc2ccc(Cl)cc2)c1C | % | 3.1
CC(C)n1c(SCc2ccccc2F)nc2c1c(=O)n(C)c(=O)n2C | % | 5.87
COc1cc(NC(=O)c2ccc(S(=O)(=O)N(C)C)cc2)cc(OC)c1OC | % | 3.48
CSc1nnc(Cn2c(=O)sc3ccccc32)n1-c1ccccc1C | % | 2.76
CCOC(=O)N1CCN(C(=O)CSc2nnc(-c3cccs3)o2)CC1 | % | 1.07

Query block: State the recorded RAM network inhibition for this entry: O=C1CN(C(=O)COc2ccccc2)CCN1
Result block: -0.43

Query block: Quick one: RAM network inhibition for Cc1ccc(-n2nc(C)c3c2OC(N)=C(C#N)C3c2cccs2)cc1 (stereo unspecified) ?
Result block: 0.52

* * *

Attribute: viability increase
assay details: doxorubicin toxicity protection in MRP-1 cells – H69AR cells, CellTiter-Glo, duplicate, MRP-1 activator project, pilot screen (AID 807);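 further: compound pretreatment 18-22 h then 72 h combined with doxorubicin; 0% = doxorubicin alone and 100% = vehicle without doxorubicin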
experimental parameters: H69AR viability with doxorubicin, CellTiter-Glo luminescence; at 10 µM; stronger effect = higher value
Answer in %, number only, no unit symbol.

Sample records with viability increase:
molecule | reading unit | viability increase
COc1nnc(-c2ccc(C)c(S(=O)(=O)NCCO)c2)c2ccccc12 | % | -1.67
Cc1noc(NS(=O)(=O)c2ccc(NC(=O)CSc3ncccn3)cc2)c1C | % | -0.58
CCOc1ccc(-c2nnc(N(CC)C(=O)C3CCC3)s2)cc1 | % | -1.68
Cc1ccc(OCCSc2cc(C)nc(N)n2)cc1 | % | 0.4

Query block: # viability increase lookup, item CCC(=O)c1cc(F)c(N2CCN(C(=O)c3ccco3)CC2)cc1C
Result block: -0.95

Query block: Given the entry CC(C)c1nccn1S(=O)(=O)c1cc(Cl)ccc1Cl , report its measured viability increase.
Result block: 0

Query block: Quick check: viability increase of O=C(Cn1c(-c2cncs2)nc2ccccc21)NCCc1ccccc1 ?
Result block: -2.77

Query block: Fill in the blank: the reported viability increase of COC(=O)Cn1c(CN2CCN(c3ccccc3F)CC2)nc2c1c(=O)n(C)c(=O)n2C is ____.
Result block: 0.3

Query block: Endpoint output: viability increase of CCN(CC)c1ccc(NC(=O)c2nc3nc(C)cc(C(F)F)n3n2)cc1 . Value?
Result block: 0.23

Query block: Suppose we examine the molecule Nc1cc(N)nc(SCCOc2ccccc2)n1 ; what viability increase value has been reported?
Result block: 0.93

Query block: Give its viability increase value. Item: COc1ccccc1C1N(c2cc(Cl)ccc2OC)C(=O)C2CCCN21 (configuration not stated)
Result block: -2.83

Query block: Which viability increase value belongs to CCOc1ccc(Cn2nnc(C(=O)Nc3cc(OC)cc(OC)c3)c2N)cc1 ?
Result block: -5.5

Query block: Any idea what viability increase was measured for CC(=O)N1CCc2cc(C(=O)CN3CCCN(Cc4ccc(F)cc4)C3)ccc21 ?
Result block: -1.12

Query block: Need viability increase of CCOC(=O)N1CCN(Cc2nc3c(c(=O)n(C)c(=O)n3C)n2Cc2ccccc2)CC1 , thanks.
Result block: -4.1

Query block: # query: viability increase of entry CC(C)(C)NC(=O)c1cnn2c1NC(c1ccc(F)cc1)CC2C(F)(F)F (configuration not stated)
Result block: -0.08

Query block: Please look up its viability increase: CCOC(=O)N1CCN(C(=O)CSc2nnc(Cn3c(=O)sc4ccccc43)n2C)CC1
Result block: -2.25

Query block: Item COc1cc(NC(=O)C2CCCN2S(=O)(=O)c2cccc3cccnc23)cc(OC)c1OC (configuration not stated) has what recorded viability increase?
Result block: -5.34

Query block: I would be grateful if you could share the reported viability increase for Cc1ccc(NC(=O)CN(c2ccc3c(c2)OCO3)S(=O)(=O)c2c(C)n[nH]c2C)cc1 .
Result block: 2.09

Query block: What viability increase value was documented for this molecule, COCCn1c(SCC(=O)N2CCN(c3ccccc3)CC2)nc2c(c1=O)SC(C)C2 (configuration not stated) ?
Result block: -3.54

Query block: Fill in: viability increase of Cc1nc2ccc(S(=O)(=O)NC(C(=O)N3CCC(C)CC3)C(C)C)cc2s1 (configuration not stated) is ___
Result block: -2.02

Query block: Name the reported viability increase value associated with the molecule COC(=O)NCc1ccc(Cl)c(Cl)c1
Result block: -1.07

Query block: Fill in: viability increase of Nn1c(Cc2ccccc2F)nnc1SCC(=O)N1CC(=O)Nc2ccccc21 is ___
Result block: -2.14

Recorded values, source PubChem BioAssay.
